Biological target: human erythrocyte acetylcholinesterase (AChE, EC 3.1.1.7) (Homo sapiens)
Construct: human erythrocyte acetylcholinesterase (AChE, EC 3.1.1.7); purchased Sigma-Aldrich (Saint Louis, MO, USA); host or cells: human erythrocytes
Sequence (P22303 32-617 isoform P22303-2 limits assumed): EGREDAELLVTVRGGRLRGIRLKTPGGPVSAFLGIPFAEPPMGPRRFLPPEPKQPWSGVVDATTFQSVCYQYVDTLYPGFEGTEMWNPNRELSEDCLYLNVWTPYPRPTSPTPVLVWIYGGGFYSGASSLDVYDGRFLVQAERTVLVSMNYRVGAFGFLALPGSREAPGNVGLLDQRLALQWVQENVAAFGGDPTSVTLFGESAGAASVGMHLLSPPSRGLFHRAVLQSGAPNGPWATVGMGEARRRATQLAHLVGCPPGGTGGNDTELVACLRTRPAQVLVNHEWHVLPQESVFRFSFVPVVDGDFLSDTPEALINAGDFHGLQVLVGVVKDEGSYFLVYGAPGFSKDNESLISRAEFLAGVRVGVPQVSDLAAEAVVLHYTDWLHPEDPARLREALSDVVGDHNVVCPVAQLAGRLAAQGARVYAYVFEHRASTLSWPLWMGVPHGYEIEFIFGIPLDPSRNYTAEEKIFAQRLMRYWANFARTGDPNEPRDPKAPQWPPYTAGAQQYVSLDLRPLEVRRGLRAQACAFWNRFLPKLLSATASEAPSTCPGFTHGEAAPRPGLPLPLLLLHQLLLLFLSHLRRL
Assay: Inhibition of human erythrocyte acetylcholinesterase (Ellman assay)
Assay type: biochemical
Settings: read-out: Inhibition % at 20 µM, Human AChE
quantity_name: inhibition at 20 µM (%)
Give bare numbers, in %.

Past entries and their recorded results:
chemical_smiles	inhibition at 20 µM / %
Cc1ccc(N/N=C2\C(=O)N(c3ccccc3)N=C2C(F)(F)C(F)(F)C(F)(F)C(F)(F)F)cc1	9
CCOC(=O)c1ccc(N/N=C2\C(=O)N(c3ccccc3)N=C2C(F)(F)F)cc1	16.7
Cc1ccc(N/N=C2\C(=O)N(C)N=C2C(F)(F)F)cc1	4.5
Cc1ccc(N/N=C2\C(=O)N(c3ccccc3)N=C2C(F)(F)C(F)(F)C(F)(F)F)cc1	12.6
O=C1/C(=N\Nc2ccc(Cl)cc2Cl)C(C(F)(F)C(F)(F)F)=NN1c1ccccc1	3.4

Provide reported inhibition at 20 µM for each item, in the same order as listed.
1. O=C1NN=C(C(F)(F)F)/C1=N/Nc1ccc(Br)cc1
2. O=C1NN=C(C(F)(F)F)/C1=N/Nc1ccccc1
3. O=C1/C(=N\Nc2ccccc2Cl)C(C(F)(F)F)=NN1c1ccccc1
4. O=C1/C(=N\Nc2c(Cl)cccc2Cl)C(C(F)(F)C(F)(F)F)=NN1c1ccccc1

1: 3.4; 2: 12.8; 3: 6.3; 4: 6

====

Molecular target: porcine liver carboxylesterase (CES, EC 3.1.1.1) (Sus scrofa, UniProt Q29550)
Sequence (Q29550 19-566): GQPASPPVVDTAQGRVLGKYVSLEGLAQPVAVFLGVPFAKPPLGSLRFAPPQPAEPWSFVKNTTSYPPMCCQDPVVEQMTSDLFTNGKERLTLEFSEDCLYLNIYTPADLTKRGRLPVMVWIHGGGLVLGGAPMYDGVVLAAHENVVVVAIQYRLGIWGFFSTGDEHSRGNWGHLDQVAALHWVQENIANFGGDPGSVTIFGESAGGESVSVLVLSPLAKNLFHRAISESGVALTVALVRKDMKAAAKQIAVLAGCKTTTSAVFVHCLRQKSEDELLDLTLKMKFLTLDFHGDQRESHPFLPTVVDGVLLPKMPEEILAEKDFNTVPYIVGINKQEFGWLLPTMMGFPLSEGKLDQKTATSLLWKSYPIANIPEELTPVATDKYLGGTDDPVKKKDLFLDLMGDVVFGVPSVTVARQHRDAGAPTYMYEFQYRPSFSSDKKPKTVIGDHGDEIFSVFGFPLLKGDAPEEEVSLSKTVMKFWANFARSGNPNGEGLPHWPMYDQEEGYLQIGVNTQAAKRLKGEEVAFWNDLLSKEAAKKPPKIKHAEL
quantity_name: IC50 (µM)
One number for each entry, in µM.

Requested field: IC50. Item: O=[N+]([O-])c1ccc(OP(=O)(O)Oc2ccc([N+](=O)[O-])cc2)cc1 [BNPP, reference compound]
1.8

====

Tested on: human dermal fibroblasts
Experiment: Cytotoxicity against human dermal fibroblasts (MTT assay)
Format: cell-based
Settings: Fibroblast, 72 h, read-out: IC50, Human Dermal Fibroblasts
quantity_name: pIC50
Answers are plain numbers, as −log10 of the molar value.

Tell me reported pIC50 for CC[C@@]1(O)C(=O)OCc2c1cc1n(c2=O)Cc2cc3ccccc3nc2-1 [Camptothecin, reference compound] , tested with human dermal fibroblasts.
5.27

====

System: Sprague-Dawley (SD) rats
Test: Hot plate test (analgesic activity)
Assay type: in vivo
Conditions: SD rats, ip, dose 15 mg/kg, 1 and 2 h
quantity_name: analgesic activity in the hot plate test

chemical_smiles	readout_value
O=C1/C(=N\Nc2c(Cl)cccc2Cl)C(C(F)(F)C(F)(F)F)=NN1c1ccccc1	inactive
Cc1ccc(N/N=C2\C(=O)N(C)N=C2C(F)(F)F)cc1	inactive
O=C1/C(=N\Nc2c(Cl)cccc2Cl)C(C(F)(F)F)=NN1c1ccccc1	inactive
O=C1/C(=N\Nc2ccc(Cl)cc2Cl)C(C(F)(F)C(F)(F)F)=NN1c1ccccc1	inactive

====

Target: equine serum butyrylcholinesterase (BChE, EC 3.1.1.8) (Equus caballus, UniProt P81908)
Construct: equine serum butyrylcholinesterase (BChE, EC 3.1.1.8); purchased Sigma-Aldrich (Saint Louis, MO, USA); host or cells: equine serum
Sequence (P81908 whole entry): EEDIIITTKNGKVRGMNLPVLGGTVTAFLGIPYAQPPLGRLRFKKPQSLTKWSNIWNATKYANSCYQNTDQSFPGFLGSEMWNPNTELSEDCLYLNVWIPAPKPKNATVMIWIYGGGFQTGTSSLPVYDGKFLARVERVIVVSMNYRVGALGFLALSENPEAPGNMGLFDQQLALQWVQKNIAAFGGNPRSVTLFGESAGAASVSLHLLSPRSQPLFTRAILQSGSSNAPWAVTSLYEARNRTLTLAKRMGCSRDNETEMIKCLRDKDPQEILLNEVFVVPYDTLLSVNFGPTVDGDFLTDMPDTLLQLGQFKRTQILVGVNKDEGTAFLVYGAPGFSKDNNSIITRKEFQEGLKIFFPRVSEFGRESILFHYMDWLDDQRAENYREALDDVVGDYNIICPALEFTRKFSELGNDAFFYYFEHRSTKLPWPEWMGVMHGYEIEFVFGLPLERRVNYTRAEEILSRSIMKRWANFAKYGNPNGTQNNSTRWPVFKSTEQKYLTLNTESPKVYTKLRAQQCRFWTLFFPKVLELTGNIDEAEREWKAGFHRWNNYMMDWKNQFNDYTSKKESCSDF
Experiment: Inhibition of equine serum butyrylcholinesterase (Ellman assay)
Type: biochemical
Details: read-out: Inhibition % at 20 µM, Equine BChE
MET means recorded inhibition at 20 µM is 4% or above; NOT MET means it is below 4%.

Check if inhibition at 20 µM >= 4% (inclusive). Item: CS(=O)(=O)c1ccc(N/N=C2\C(=O)N(c3ccccc3)N=C2C(F)(F)C(F)(F)F)cc1 [6h]
MET

Check if inhibition at 20 µM >= 4% (inclusive). Item: Cc1ccc(N/N=C2\C(=O)NN=C2C(F)(F)C(F)(F)C(F)(F)F)cc1 [7a]
MET

Check if inhibition at 20 µM >= 4% (inclusive). Item: CCOC(=O)c1ccc(N/N=C2\C(=O)N(c3ccccc3)N=C2C(F)(F)C(F)(F)F)cc1 [6g]
MET

Check if inhibition at 20 µM >= 4% (inclusive). Item: CCOC(=O)c1ccc(N/N=C2\C(=O)N(c3ccccc3)N=C2C(F)(F)F)cc1 [5l]
NOT MET

Check if inhibition at 20 µM >= 4% (inclusive). Item: Cc1ccc(N/N=C2\C(=O)N(c3ccc(S(N)(=O)=O)cc3)N=C2C(F)(F)F)cc1 [5p]
NOT MET

Origin of measurements: paper PMC9821843
